# System: Escherichia coli
# assay-comment: Antibacterial activity against Escherichia coli ATCC 25922 assessed as reduction in bacterial cell growth incubated for 18 hrs by two fold serial microdilution method
# Type: functional
Square brackets hold non-standard residues; d marks the D form. Peptide text beside a SMILES is read from it. βAla = NCCC(=O)O
readout-kind: MIC (µM)
Record the value in µM, omitting the unit from your answer.

The reported MIC of the compound CC[C@H](C)[C@H](NC(=O)[C@H](CCCNC(=N)N)NC(=O)[C@H](CCCCN)NC(=O)[C@H](CC(C)C)NC(=O)[C@H](CC(C)C)NC(=O)CN)C(=O)N[C@@H](CCCCN)C(=O)NCCC(=O)N[C@@H](CC(C)C)C(=O)N[C@@H](CC(C)C)C(N)=O (H-GLLKRIK[βAla]LL-NH2) was 32

Record summary for CC[C@H](C)[C@H](NC(=O)[C@H](CCCNC(=N)N)NC(=O)[C@H](CCCCN)NC(=O)[C@H](CC(C)C)NC(=O)[C@H](CC(C)C)NC(=O)CCN)C(=O)N[C@@H](CCCCN)C(=O)N[C@H](C(=O)N[C@@H](CC(C)C)C(=O)N[C@@H](CC(C)C)C(N)=O)[C@@H](C)O (H-[βAla]LLKRIKTLL-NH2) : reported MIC = 32

Item: CC[C@H](C)[C@H](NC(=O)[C@H](CCCNC(=N)N)NC(=O)[C@H](CCCCN)NC(=O)[C@H](CC(C)C)NC(=O)[C@H](CC(C)C)NC(=O)CN)C(=O)NCCC(=O)N[C@H](C(=O)N[C@@H](CC(C)C)C(=O)N[C@@H](CC(C)C)C(N)=O)[C@@H](C)O (H-GLLKRI[βAla]TLL-NH2) | MIC: 64

Provenance of the data: ChEMBL document CHEMBL5608163
